- Test system: CCK-2R (Rattus norvegicus, UniProt P30553)
- Construct: The CCK-2R expressing rat pancreatic tumor cells AR4-2J; host or cells: AR4-2J rat pancreatic tumor cells
- Protocol text: Determination of IC50: CCK-2R affinity on AR4-2J cells, competition with [^177Lu]Lu-DOTA-PP-F11N
- Type: binding
- Stated conditions: AR4-2J cells; ^natLu-labeled; read-out: IC50 [nM] (n = 3), ^natLu-labeled
Starred links: 1 amine or outer side, 2 acyl side, 3 side chain; linkers in the order of their positions; H or OH if unused. Non-standard residues stand in square brackets, D forms with d. Residues, ends and D or L forms follow the SMILES beside them. *: point of attachment. Benzoyl(4-SiFtBu2) = CC(C)(C)[Si](F)(c1ccc(C(=O)*)cc1)C(C)(C)C; DOTA = O=C(O)CN1CCN(CC(=O)O)CCN(CC(=O)*)CCN(CC(=O)O)CC1; PEG12 = NCCOCCOCCOCCOCCOCCOCCOCCOCCOCCOCCOCCOCCC(=O)O; d(γGlu) = O=C(O)[C@@H](CCC(=O)[*:2])N[*:1]; 1Nal = N[C@@H](Cc1cccc2ccccc12)C(=O)O; NMeNle = CCCC[C@H](NC)C(=O)O; PEG4 = NCCOCCOCCOCCOCCC(=O)O; dDap = NC[C@@H](N)C(=O)O
Provide the recorded IC50 for the entries that follow.
// note: answer is a bare numeric in nM

May I ask what IC50 has been recorded for CCCC[C@@H](C(=O)N[C@@H](CC(=O)O)C(=O)N[C@@H](Cc1cccc2ccccc12)C(N)=O)N(C)C(=O)[C@H](Cc1c[nH]c2ccccc12)NC(=O)CCOCCOCCOCCOCCNC(=O)CC[C@@H](NC(=O)CCOCCOCCOCCOCCOCCOCCOCCOCCOCCOCCOCCOCCNC(=O)[C@@H](CNC(=O)c1ccc([Si](F)(C(C)(C)C)C(C)(C)C)cc1)NC(=O)CN1CCN(CC(=O)O)CCN(CC(=O)O)CCN(CC(=O)O)CC1)C(=O)O [DOTA-rhCCK-74] ({DOTA}-[dDap](Benzoyl(4-SiFtBu2))[PEG12][d(γGlu)][PEG4]W[NMeNle]D[1Nal]-NH2) ?
12.1

Fill in the blank: the reported IC50 of CCCC[C@@H](C(=O)N[C@@H](CC(=O)O)C(=O)N[C@@H](Cc1cccc2ccccc12)C(N)=O)N(C)C(=O)[C@H](Cc1c[nH]c2ccccc12)NC(=O)CCOCCOCCOCCOCCNC(=O)CC[C@@H](NC(=O)CCOCCOCCOCCOCCOCCOCCOCCOCCOCCOCCOCCOCCNC(=O)CC[C@@H](NC(=O)[C@@H](CNC(=O)c1ccc([Si](F)(C(C)(C)C)C(C)(C)C)cc1)NC(=O)CN1CCN(CC(=O)O)CCN(CC(=O)O)CCN(CC(=O)O)CC1)C(=O)O)C(=O)O [DOTA-rhCCK-76] is ____.
14.2

Value lookup for IC50; key = CCCC[C@@H](C(=O)N[C@@H](CC(=O)O)C(=O)N[C@@H](Cc1cccc2ccccc12)C(N)=O)N(C)C(=O)[C@H](Cc1c[nH]c2ccccc12)NC(=O)CCOCCOCCOCCOCCNC(=O)[C@@H](CCC(=O)O)NC(=O)CN1CCN(CC(=O)O)CCN(CC(=O)O)CCN(CC(=O)O)CC1 [DOTA-CCK-66.2] ({DOTA}-[dE][PEG4]W[NMeNle]D[1Nal]-NH2)
4.8

----------
- Test system: CCK-2R (Rattus norvegicus)
- Construct: The CCK-2R expressing rat pancreatic tumor cells AR4-2J; host or cells: AR4-2J rat pancreatic tumor cells
- Protocol text: Determination of IC50: CCK-2R affinity on AR4-2J cells, competition with [^177Lu]Lu-DOTA-PP-F11N
- Type: binding
- Stated conditions: AR4-2J cells; references ^natLu-labeled, other peptides without chelator; read-out: IC50 [nM] (n = 3)
Non-standard residues stand in square brackets, D forms with d. Residues, ends and D or L forms follow the SMILES beside them. 2Nal = N[C@@H](Cc1ccc2ccccc2c1)C(=O)O; NMeNle = CCCC[C@H](NC)C(=O)O; Nle = CCCC[C@H](N)C(=O)O
Reported property: IC50 (nM)
Give the value in nM but do not write nM after it.

Which measured IC50 value corresponds to CCCC[C@H](NC(=O)[C@@H](N)Cc1c[nH]c2ccccc12)C(=O)N[C@@H](CC(=O)O)C(=O)N[C@@H](Cc1ccccc1)C(N)=O [H-Trp-Nle-Asp-Phe-NH2] (H-W[Nle]DF-NH2) ?
466

If you can, please state the reported IC50 value of CCCC[C@@H](C(=O)N[C@@H](CC(=O)O)C(=O)N[C@@H](Cc1ccc2ccccc2c1)C(N)=O)N(C)C(=O)[C@@H](N)Cc1c[nH]c2ccccc12 [H-Trp-(N-Me)Nle-Asp-2-Nal-NH2] (H-W[NMeNle]D[2Nal]-NH2) .
102

Look at this compound and give its reported IC50. CSCC[C@H](NC(=O)[C@H](Cc1c[nH]c2ccccc12)NC(=O)CNC(=O)[C@H](Cc1ccc(O)cc1)NC(=O)[C@H](C)NC(=O)[C@@H](CCC(=O)O)NC(=O)[C@@H](CCC(=O)O)NC(=O)[C@@H](CCC(=O)O)NC(=O)[C@@H](CCC(=O)O)NC(=O)[C@@H](CCC(=O)O)NC(=O)[C@@H](CCC(=O)O)NC(=O)CN1CCN(CC(=O)O)CCN(CC(=O)O)CCN(CC(=O)O)CC1)C(=O)N[C@@H](CC(=O)O)C(=O)N[C@@H](Cc1ccccc1)C(N)=O [CP04, reference compound]
11.2

----------
- Test system: Human serum albumin (HSA) (Homo sapiens)
- Construct: purchased Daicel, Tokyo, Japan H13H-2433
- Sequence (P02768 25-609): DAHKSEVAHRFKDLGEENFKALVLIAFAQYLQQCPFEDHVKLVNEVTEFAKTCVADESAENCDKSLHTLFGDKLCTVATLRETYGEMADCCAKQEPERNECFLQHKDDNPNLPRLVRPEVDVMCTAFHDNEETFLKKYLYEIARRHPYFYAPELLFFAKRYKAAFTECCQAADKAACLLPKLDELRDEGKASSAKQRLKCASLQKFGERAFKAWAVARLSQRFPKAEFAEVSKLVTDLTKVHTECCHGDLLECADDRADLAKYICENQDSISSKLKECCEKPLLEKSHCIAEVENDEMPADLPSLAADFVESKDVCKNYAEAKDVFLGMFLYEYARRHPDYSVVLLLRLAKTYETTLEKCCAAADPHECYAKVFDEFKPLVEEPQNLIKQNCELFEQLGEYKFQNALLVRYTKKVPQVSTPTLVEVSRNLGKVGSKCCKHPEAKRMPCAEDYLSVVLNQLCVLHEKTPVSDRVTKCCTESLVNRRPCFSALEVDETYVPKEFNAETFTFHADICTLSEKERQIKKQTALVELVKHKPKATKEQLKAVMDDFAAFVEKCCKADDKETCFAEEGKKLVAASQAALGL
- Protocol text: Determination of HSA binding on a Chiralpak HSA column
- Format: in vitro ADME
- Stated conditions: Tab. 8; metal not stated (Fig. 18: ^natLu)
Reported property: HSA binding [%] (%)
Record the value in %, omitting the unit from your answer.

Please report the recorded HSA binding [%] for CCCC[C@@H](C(=O)N[C@@H](CC(=O)O)C(=O)N[C@@H](Cc1cccc2ccccc12)C(N)=O)N(C)C(=O)[C@H](Cc1c[nH]c2ccccc12)NC(=O)CCOCCOCCOCCOCCNC(=O)CC[C@@H](NC(=O)CCOCCOCCOCCOCCOCCOCCOCCOCCOCCOCCOCCOCCNC(=O)CC[C@@H](NC(=O)[C@@H](CNC(=O)c1ccc([Si](F)(C(C)(C)C)C(C)(C)C)cc1)NC(=O)CN1CCN(CC(=O)O)CCN(CC(=O)O)CCN(CC(=O)O)CC1)C(=O)O)C(=O)O .
86.2

I would be grateful if you could share the reported HSA binding [%] for CCCC[C@@H](C(=O)N[C@@H](CC(=O)O)C(=O)N[C@@H](Cc1cccc2ccccc12)C(N)=O)N(C)C(=O)[C@H](Cc1c[nH]c2ccccc12)NC(=O)CCOCCOCCOCCOCCNC(=O)CC[C@@H](NC(=O)CCOCCOCCOCCOCCOCCOCCOCCOCCNC(=O)CC[C@@H](NC(=O)[C@@H](CNC(=O)C[N+](C)(C)Cc1ccc([Si](F)(C(C)(C)C)C(C)(C)C)cc1)NC(=O)CN1CCN(CC(=O)O)CCN(CC(=O)O)CCN(CC(=O)O)CC1)C(=O)O)C(=O)O .
89.1

Give its HSA binding [%] value. Item: CCCC[C@@H](C(=O)N[C@@H](CC(=O)O)C(=O)N[C@@H](Cc1cccc2ccccc12)C(N)=O)N(C)C(=O)[C@H](Cc1c[nH]c2ccccc12)NC(=O)CCOCCOCCOCCOCCNC(=O)CC[C@@H](NC(=O)CCOCCOCCOCCOCCOCCNC(=O)CC[C@@H](NC(=O)[C@@H](CNC(=O)C[N+](C)(C)Cc1ccc([Si](F)(C(C)(C)C)C(C)(C)C)cc1)NC(=O)CN1CCN(CC(=O)O)CCN(CC(=O)O)CCN(CC(=O)O)CC1)C(=O)O)C(=O)O
90.0

Can you share its HSA binding [%]? I mean this compound: CCCC[C@@H](C(=O)N[C@@H](CC(=O)O)C(=O)N[C@@H](Cc1cccc2ccccc12)C(N)=O)N(C)C(=O)[C@H](Cc1c[nH]c2ccccc12)NC(=O)CCOCCOCCOCCOCCNC(=O)CC[C@@H](NC(=O)CCOCCOCCOCCOCCOCCOCCOCCOCCOCCOCCOCCOCCNC(=O)CC[C@@H](NC(=O)[C@@H](CNC(=O)C[N+](C)(C)Cc1ccc([Si](F)(C(C)(C)C)C(C)(C)C)cc1)NC(=O)CN1CCN(CC(=O)O)CCN(CC(=O)O)CCN(CC(=O)O)CC1)C(=O)O)C(=O)O
90.9

Can you share its HSA binding [%]? I mean this compound: CCCC[C@@H](C(=O)N[C@@H](CC(=O)O)C(=O)N[C@@H](Cc1cccc2ccccc12)C(N)=O)N(C)C(=O)[C@H](Cc1c[nH]c2ccccc12)NC(=O)CCOCCOCCOCCOCCNC(=O)CC[C@@H](NC(=O)CCOCCOCCOCCOCCOCCOCCOCCOCCNC(=O)CC[C@@H](NC(=O)[C@@H](CNC(=O)c1cc(C(=O)O)cc([Si](F)(C(C)(C)C)C(C)(C)C)c1)NC(=O)CN1CCN(CC(=O)O)CCN(CC(=O)O)CCN(CC(=O)O)CC1)C(=O)O)C(=O)O
89.3

HSA binding [%] lookup needed for CCCC[C@@H](C(=O)N[C@@H](CC(=O)O)C(=O)N[C@@H](Cc1cccc2ccccc12)C(N)=O)N(C)C(=O)[C@H](Cc1c[nH]c2ccccc12)NC(=O)CCOCCOCCOCCOCCNC(=O)CC[C@@H](NC(=O)CCOCCOCCOCCOCCOCCOCCOCCOCCNC(=O)CC[C@@H](NC(=O)[C@@H](CNC(=O)c1ccc([Si](F)(C(C)(C)C)C(C)(C)C)cc1)NC(=O)CN1CCN(CC(=O)O)CCN(CC(=O)O)CCN(CC(=O)O)CC1)C(=O)O)C(=O)O , thanks.
89.3
